Recorded log10 IC50 for the following molecules
- Assay target: canine TRPM8 (Canis lupus familiaris, UniProt Q1A7N1)
- Sequence (Q1A7N1 1-1104): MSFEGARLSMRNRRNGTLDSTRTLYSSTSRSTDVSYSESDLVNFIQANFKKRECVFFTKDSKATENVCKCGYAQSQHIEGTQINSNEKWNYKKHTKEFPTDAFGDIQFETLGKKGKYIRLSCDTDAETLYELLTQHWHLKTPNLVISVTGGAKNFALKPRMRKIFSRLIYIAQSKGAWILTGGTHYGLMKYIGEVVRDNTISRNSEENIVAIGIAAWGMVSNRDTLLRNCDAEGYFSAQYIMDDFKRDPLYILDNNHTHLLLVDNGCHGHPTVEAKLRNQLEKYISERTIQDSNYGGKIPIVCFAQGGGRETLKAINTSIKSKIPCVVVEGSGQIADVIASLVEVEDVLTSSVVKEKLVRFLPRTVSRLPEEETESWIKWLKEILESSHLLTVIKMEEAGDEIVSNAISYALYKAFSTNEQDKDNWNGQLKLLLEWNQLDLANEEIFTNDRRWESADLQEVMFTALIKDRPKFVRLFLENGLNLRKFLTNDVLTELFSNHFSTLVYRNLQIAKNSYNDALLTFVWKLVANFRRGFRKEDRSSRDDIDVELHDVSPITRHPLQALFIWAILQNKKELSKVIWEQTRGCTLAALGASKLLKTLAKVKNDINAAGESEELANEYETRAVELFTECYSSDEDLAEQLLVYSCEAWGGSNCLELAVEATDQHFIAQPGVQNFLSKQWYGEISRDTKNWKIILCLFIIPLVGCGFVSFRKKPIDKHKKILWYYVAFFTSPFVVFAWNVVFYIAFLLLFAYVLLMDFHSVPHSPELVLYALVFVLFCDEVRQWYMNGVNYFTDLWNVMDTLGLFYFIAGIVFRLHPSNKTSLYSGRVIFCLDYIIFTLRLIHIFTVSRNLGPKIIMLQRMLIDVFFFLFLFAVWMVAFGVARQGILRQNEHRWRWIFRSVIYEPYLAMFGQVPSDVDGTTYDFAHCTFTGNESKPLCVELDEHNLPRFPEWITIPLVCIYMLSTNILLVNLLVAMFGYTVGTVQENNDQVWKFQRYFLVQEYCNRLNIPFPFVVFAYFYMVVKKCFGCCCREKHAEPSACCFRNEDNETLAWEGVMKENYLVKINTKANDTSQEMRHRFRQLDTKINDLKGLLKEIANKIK
- Assay: In Vitro Canine TRPM8 Functional Assay (Ca2+ fluorescence, icilin activation)
- Assay type: cell-based
- Condition summary: HEK293 cells stably expressing canine TRPM8; icilin activation; eight-point dose-response; read-out: IC50
Note the log scale: values are log10 of IC50 expressed in nM.

Request: Name the reported log10 IC50 value associated with the molecule `CC1=C(N(CCCCC(F)(F)F)S(=O)(=O)c2ccccc2)S(=O)(=O)c2ccccc21`
Response: 1.04

Request: Thanks! And `COc1ccc(S(=O)(=O)N(Cc2ccc(F)c(C(F)(F)F)c2)c2sc3ccccc3c2Br)cc1` ?
Response: 1.00

Request: Thanks! And `Cc1c(N(Cc2cccc(OC(F)(F)F)c2)S(=O)(=O)CCCBr)sc2ccccc12` ?
Response: 1.64

Request: Thanks! And `CCS(=O)(=O)N(Cc1ccc(F)c(F)c1)c1sc2ccccc2c1C(C)(C)O` ?
Response: 0.30

Request: Thanks! And `O=c1[nH]c(-c2ccc(S(=O)(=O)N(CCCCC(F)(F)F)c3sc4ccccc4c3Cl)cc2)no1` ?
Response: 1.20

====

- Assay target: canine TRPM8 (Canis lupus familiaris, UniProt Q1A7N1)
- Assay: In Vitro Canine TRPM8 Functional Assay (Ca2+ fluorescence, icilin activation)
- Assay type: cell-based
- Condition summary: compound at 0.5 μM; canine TRPM8, icilin activation; read-out: % Inh @ 0.5
Attribute measured: inhibition at 0.5 µM
Answer as a quantity: numeral, then unit.

Request: Observed inhibition at 0.5 µM on canine TRPM8 (Canis lupus familiaris, UniProt Q1A7N1) for `O=S(=O)(c1ccccc1)N(Cc1ccc(F)c(C(F)(F)F)c1)c1sc2ccccc2c1Cl` , please.
Response: 97%

====

- Assay target: canine TRPM8 (Canis lupus familiaris)
- Assay: In Vitro Canine TRPM8 Functional Assay (Ca2+ fluorescence, icilin activation)
- Assay type: cell-based
- Condition summary: HEK293 cells stably expressing canine TRPM8; icilin activation; eight-point dose-response; read-out: IC50
We label by threshold. Values of IC50 strictly beneath 30 nM are True. Values of 30 nM and up are False.

{"Compound": "CNS(=O)(=O)N(Cc1ccc(F)c(C(F)(F)F)c1)c1sc2ccccc2c1Br", "Assigned category": "True"}

Request: Dear reviewer, please state whether `COC(=O)c1ccc(S(=O)(=O)N(Cc2ccc(OC(F)(F)F)cc2)c2sc3ccccc3c2C2CC2)cc1` has IC50 strictly beneath 30 nM.
Response: True

Request: Thanks! And `Cc1c(N(Cc2ccc(F)c(C(F)(F)F)c2)S(=O)(=O)c2cnc(Cl)c(Br)c2)sc2ccccc12` ?
Response: False

Request: Thanks! And `CS(=O)(=O)Nc1ccc(S(=O)(=O)N(Cc2ccc(F)c(C(F)(F)F)c2)c2sc3ccccc3c2Cl)cc1` ?
Response: True

Request: Thanks! And `O=c1[nH]c(-c2ccc(S(=O)(=O)N(CCCCC(F)(F)F)c3cc4ccccc4s3)cc2)ns1` ?
Response: False

Request: Thanks! And `O=S(=O)(c1cccc(F)c1)N(Cc1ccc(F)c(F)c1)c1cc2ccccc2s1` ?
Response: False

Request: Thanks! And CCCCN(c1sc2ccccc2c1Br)S(=O)(=O)c1ccc(C2=NOS(=O)N2)cc1 (centres unmarked) ?
Response: True

Request: Thanks! And `Cc1c(N(Cc2ccc(OC(F)(F)F)cc2)S(C)(=O)=O)sc2ccccc12` ?
Response: True
